meta.source: paper PMC2920070

target: NR1/NR2C (Rattus norvegicus, UniProt P35439+Q00961); assay: Two-electrode voltage-clamp, recombinant NR1/NR2C in Xenopus oocytes
Sequence (Q00961 20-1237, other chains not shown): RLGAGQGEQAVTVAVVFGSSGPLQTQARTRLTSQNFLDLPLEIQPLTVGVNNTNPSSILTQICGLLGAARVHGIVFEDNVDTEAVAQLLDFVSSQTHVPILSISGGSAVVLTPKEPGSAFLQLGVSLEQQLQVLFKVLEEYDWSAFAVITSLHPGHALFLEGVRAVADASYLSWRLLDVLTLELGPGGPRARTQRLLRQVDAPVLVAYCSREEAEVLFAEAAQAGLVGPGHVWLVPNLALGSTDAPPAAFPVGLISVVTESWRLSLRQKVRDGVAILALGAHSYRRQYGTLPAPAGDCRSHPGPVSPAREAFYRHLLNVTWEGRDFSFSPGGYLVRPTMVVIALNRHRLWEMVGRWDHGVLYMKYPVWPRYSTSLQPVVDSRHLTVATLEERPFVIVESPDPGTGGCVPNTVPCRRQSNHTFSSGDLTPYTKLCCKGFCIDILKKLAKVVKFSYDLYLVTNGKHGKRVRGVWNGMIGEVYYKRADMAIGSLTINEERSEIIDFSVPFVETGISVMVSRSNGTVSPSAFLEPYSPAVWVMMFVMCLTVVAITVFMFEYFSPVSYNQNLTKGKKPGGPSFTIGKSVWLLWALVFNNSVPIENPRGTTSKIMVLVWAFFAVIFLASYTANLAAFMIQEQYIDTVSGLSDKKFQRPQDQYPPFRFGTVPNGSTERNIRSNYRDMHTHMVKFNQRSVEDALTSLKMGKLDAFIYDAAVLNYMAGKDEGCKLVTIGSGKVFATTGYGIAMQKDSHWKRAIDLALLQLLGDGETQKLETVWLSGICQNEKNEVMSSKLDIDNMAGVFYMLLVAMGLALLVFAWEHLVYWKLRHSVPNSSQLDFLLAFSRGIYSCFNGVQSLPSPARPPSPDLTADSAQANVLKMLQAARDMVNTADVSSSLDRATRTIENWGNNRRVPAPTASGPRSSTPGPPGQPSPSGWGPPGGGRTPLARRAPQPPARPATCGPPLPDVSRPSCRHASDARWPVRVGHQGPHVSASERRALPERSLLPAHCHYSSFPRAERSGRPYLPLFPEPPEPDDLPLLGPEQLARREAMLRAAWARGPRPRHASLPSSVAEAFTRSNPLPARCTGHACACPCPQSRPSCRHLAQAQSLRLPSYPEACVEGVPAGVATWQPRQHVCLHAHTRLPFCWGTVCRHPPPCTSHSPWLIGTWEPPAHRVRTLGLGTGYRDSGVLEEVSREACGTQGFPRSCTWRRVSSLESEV
pIC50: −log10 of the molar value.
assay-endpoint: pIC50

Examples with answers:
O=C(O)c1ccc(-n2c(/C=C/c3ccccc3C(F)(F)F)nc3ccccc3c2=O)cc1	4.06
Cc1cccc(/C=C/c2nc3ccccc3c(=O)n2-c2ccc(C(=O)O)cc2)c1	4.55
O=C(O)c1ccc(-n2c(/C=C/c3ccccc3)nc3ccccc3c2=O)cc1	4.41

a: O=C(O)c1ccc(-n2c(/C=C/c3ccc(C(F)(F)F)cc3)nc3ccccc3c2=O)cc1
b: COc1ccc(/C=C/c2nc3ccccc3c(=O)n2-c2ccc(C(=O)O)cc2)cc1
c: O=C(O)c1ccc(-n2c(/C=C/c3cccc([N+](=O)[O-])c3)nc3ccc(F)cc3c2=O)cc1
List the 3 entries from lowest pIC50 to highest pIC50 value. List the labels according to the requested ordering.
b, a, c

1: O=C(O)c1ccc(-n2c(/C=C/c3ccc(O)cc3)nc3ccccc3c2=O)cc1
2: Cc1ccc(/C=C/c2nc3ccccc3c(=O)n2-c2ccc(C(=O)O)cc2)cc1
Given the listed records, identify the one among 1 and 2 with higher pIC50. Give the label of your selection.
2
